These data points were gathered from ChEMBL document CHEMBL4513216.

test: Toxicity liver stage against HepG2, at 10uM; format: cell-based; parameters: test concentration 10 uM, cell line HepG2-A16-CD81EGFP; settings: human, HepG2-A16-CD81EGFP cells; read-out: INHIBITION
Would you kindly list cytotoxicity at 10 µM for each of these compounds?
Report only the number, with the unit % understood.

**Query** What value of measured cytotoxicity at 10 µM is listed for CNc1cc(C2CCCN2C(=O)c2ccc(=O)[nH]n2)ccn1 (stereo not drawn) ?
**Result** -5.04

**Query** Item under review: "Cc1cccc(N(CCC(N)=O)C(=O)c2ccnc(C)n2)c1" . Reported cytotoxicity at 10 µM?
**Result** -8.47

**Query** Name the recorded cytotoxicity at 10 µM for CC(C)OCCC(=O)NCC(O)c1c(Cl)cccc1Cl (stereo not drawn) .
**Result** -6.93

**Query** Name the recorded cytotoxicity at 10 µM for O=C(Cc1cccc(F)c1)NCCNCC1CNc2ccnn2C1 (stereo not drawn) .
**Result** 2.04

**Query** Looking for the measured cytotoxicity at 10 µM of CN(C)CC(=O)N1CCCC2(CCC(=O)N(CCc3c[nH]cn3)C2)C1 (stereo not drawn) , can you help?
**Result** -8.77

**Query** cytotoxicity at 10 µM for "O=C(O)c1ccccc1-c1ccc(CN2CC(O)C2)cc1" ?
**Result** -0.363

**Query** # query: cytotoxicity at 10 µM of entry Cc1noc(C)c1CN1CCC(N(C)Cc2nnc(C3CC3)n2C)C1 (stereo not drawn)
**Result** -4.03

**Query** Report cytotoxicity at 10 µM for "CCN(Cc1noc(CC(C)C)n1)Cc1cccc(F)c1O" please.
**Result** -44

**Query** Name the reported cytotoxicity at 10 µM value associated with the compound OC(CN1CCN(CC(F)F)CC1)c1ccc(Br)cc1 (stereo not drawn)
**Result** -9.88

**Query** Sample "O=C(NCC(F)(F)F)c1ccc(-c2ccco2)[nH]c1=O" — what was its cytotoxicity at 10 µM?
**Result** -21.6

**Query** Entry "CC(C)n1nccc1C(=O)N1CCC(c2nnsc2S(C)(=O)=O)CC1" has what cytotoxicity at 10 µM?
**Result** -0.88

**Query** I have this compound here, Cc1cc2n(n1)CC(CNC1CCN(C(=O)C3CC3)CC1)CN2 (stereo not drawn) , and I need its recorded cytotoxicity at 10 µM.
**Result** 5.17

**Query** What value of measured cytotoxicity at 10 µM is listed for CCCn1cnnc1CN(C)C(=O)C1CCC(=O)N(C2CCCC2)C1 (stereo not drawn) ?
**Result** 2.95

**Query** Any idea what cytotoxicity at 10 µM was measured for "CCn1c(CN2CCC(O)(C(=O)OC)CC2)nc2c(F)cccc21" ?
**Result** -9.73

**Query** For the compound COc1ccc(C(=O)C2CCCN(c3cc(OC)ncn3)C2)c(C)c1 (stereo not drawn) , what cytotoxicity at 10 µM is on record?
**Result** 48

**Query** Would you kindly share the measured cytotoxicity at 10 µM for CC(Oc1ccc(F)cc1)C(=O)N(CC(N)=O)C1CCCC1 (stereo not drawn) ?
**Result** 0.217

**Query** Quick check: cytotoxicity at 10 µM of Cc1c(Cl)cccc1N1CC(c2nnc(N)s2)CC1=O (stereo not drawn) ?
**Result** 7.38

**Query** Entry "Cc1ccc(C2(CN(C)Cc3c(C)nn(C)c3C)CCNCC2)nc1" has what cytotoxicity at 10 µM?
**Result** -0.44

**Query** Data request, read-out cytotoxicity at 10 µM, for "COc1ccc(N(CCC(N)=O)C(=O)CSc2ccc(F)c(F)c2)cc1"
**Result** 4.13

**Query** Which measured cytotoxicity at 10 µM value corresponds to O=C1CC(N(C(=O)c2ccc(F)c(F)c2)C2CC2)C(=O)N1 (stereo not drawn) ?
**Result** 2.1

**Query** // cytotoxicity at 10 µM lookup, key: "N#Cc1ccc(N2CC3(CCN(c4nccs4)C3)C2)nc1"
**Result** -12.5

**Query** Which cytotoxicity at 10 µM is listed for "CCCc1nc(N2CCC(C)CC2)c2c(n1)c(C)nn2CC" ?
**Result** 1.64

**Query** Any idea what its cytotoxicity at 10 µM is? The compound is "COCCN1CCC2(CCN(CC3CC3)CC2)C1=O"
**Result** 7.55

**Query** Return reported cytotoxicity at 10 µM; argument: "CC(C)(C)c1coc([C@@H]2COCCN2Cc2ccccc2)n1"
**Result** 2.72

**Query** What cytotoxicity at 10 µM value was documented for this compound, CN1CCN(C2COC3(CCN(Cc4ccc(F)cc4)CC3)C2)CC1 (stereo not drawn) ?
**Result** -97.4

**Query** Item "CC(C)c1ocnc1C(=O)Nc1cccc(Cn2ccccc2=O)c1" has what recorded cytotoxicity at 10 µM?
**Result** 8.15

**Query** Endpoint output: cytotoxicity at 10 µM of Cc1cc(C)c(CNC(=O)NC(C)c2ccc3c(c2)CCC3)c(=O)[nH]1 (stereo not drawn) . Value?
**Result** 27.4

**Query** Fill in the blank: the reported cytotoxicity at 10 µM of "O=S1(=O)COCCN1Cc1ccc(Cl)c(Cl)c1" is ____.
**Result** 8.44

**Query** cytotoxicity at 10 µM for "CCCC(C)(C)NC(=O)CCN1CCOC1=O" ?
**Result** -8.94

**Query** Form field: reported cytotoxicity at 10 µM of "CCn1nccc1CNC(=O)Cn1cc2c(n1)c(C)nn2C(C)C"
**Result** -4.7

**Query** May I ask what cytotoxicity at 10 µM has been recorded for "Cc1ccc(-c2cc(CN(CC(N)=O)CC(C)C)on2)cc1" ?
**Result** 10.1

**Query** Query (compound): "Cc1cncc(CN2CC[C@@](O)(CNC(=O)c3c[nH]cn3)[C@H](O)C2)c1" ; field requested: cytotoxicity at 10 µM
**Result** -1.68

**Query** For "Cn1cncc1CN1C[C@@H]2OCCN(c3ncccn3)[C@@H]2C1" , what is its reported cytotoxicity at 10 µM?
**Result** -67

**Query** I have this compound here, Cn1ccnc1CNC(=O)CC1CCCCO1 (stereo not drawn) , and I need its recorded cytotoxicity at 10 µM.
**Result** 1.24

**Query** # cytotoxicity at 10 µM lookup, item Cn1cc(CN2CCCC3(CCCCN3S(C)(=O)=O)C2)cn1 (stereo not drawn)
**Result** -76.3

**Query** Entry under review: Cc1cc(C)cc(C2(C(=O)NCC(C)CN3CCCC3=O)CC2)c1 (stereo not drawn) . Reported cytotoxicity at 10 µM?
**Result** 1.42

**Query** Which cytotoxicity at 10 µM reading was recorded for the compound CCC(C)[C@H](NC(=O)c1cc(Br)ccc1-n1cnnn1)C(=O)OC (stereo partly drawn) ?
**Result** 2.58

**Query** If you can, please state the reported cytotoxicity at 10 µM value of "O=C(CN1CC(n2cccn2)C1)NCC1(c2ccccc2)CCC1" .
**Result** -3.14

**Query** Query: cytotoxicity at 10 µM; subject: Cc1cc(C(=O)N2CC(O)CO2)c2ccc(C)c(C)c2n1 (stereo not drawn)
**Result** 11.3

**Query** Quick one: cytotoxicity at 10 µM for CCCc1noc(CCC(=O)N2CCCC(n3ccnc3C)C2)n1 (stereo not drawn) ?
**Result** -4.39

**Query** I would be grateful if you could share the reported cytotoxicity at 10 µM for "CN(CC1CCC1)C(=O)Nc1cccnc1-n1cncn1" .
**Result** 2.86

**Query** // lookup cytotoxicity at 10 µM for CN(C)C(=O)N1CCN(C(=O)c2ccccc2)CC2(CNC(=O)C2)C1 (stereo not drawn)
**Result** 7.19

**Query** Which cytotoxicity at 10 µM value belongs to CCCc1nc(CNc2cccc(C(=O)N3CCCC(O)C3)c2)no1 (stereo not drawn) ?
**Result** -5.35

**Query** Reported cytotoxicity at 10 µM, compound "Cc1ccc2nc(C3CCN(CC(C)C)CC3)nc(O)c2c1" : ____
**Result** 7.69

**Query** So what's the measured cytotoxicity at 10 µM for this one? CN(Cc1cccnc1)CC1CC12CCN(c1nncs1)CC2 (stereo not drawn)
**Result** 9.28

**Query** Item under review: CC(C)C(NC(=O)Nc1ccc(F)cc1)C(=O)N(C)C (stereo not drawn) . Reported cytotoxicity at 10 µM?
**Result** -10.9

**Query** I'd like to know its cytotoxicity at 10 µM. The compound in question is CC(NC(=O)NCC1(c2ccc(F)cc2)CC1)c1nncn1C (stereo not drawn)
**Result** -4.75

**Query** I have this compound here, O=C(c1ccncc1)N1CCCC2(CCN(c3cccnc3)C2=O)C1 (stereo not drawn) , and I need its recorded cytotoxicity at 10 µM.
**Result** -131
